src = ChEMBL document CHEMBL1641382

target of assay: Adrenergic receptor alpha-2 (Rattus norvegicus, UniProt P22086+P19328+P22909)
Sequence (P22086 whole entry): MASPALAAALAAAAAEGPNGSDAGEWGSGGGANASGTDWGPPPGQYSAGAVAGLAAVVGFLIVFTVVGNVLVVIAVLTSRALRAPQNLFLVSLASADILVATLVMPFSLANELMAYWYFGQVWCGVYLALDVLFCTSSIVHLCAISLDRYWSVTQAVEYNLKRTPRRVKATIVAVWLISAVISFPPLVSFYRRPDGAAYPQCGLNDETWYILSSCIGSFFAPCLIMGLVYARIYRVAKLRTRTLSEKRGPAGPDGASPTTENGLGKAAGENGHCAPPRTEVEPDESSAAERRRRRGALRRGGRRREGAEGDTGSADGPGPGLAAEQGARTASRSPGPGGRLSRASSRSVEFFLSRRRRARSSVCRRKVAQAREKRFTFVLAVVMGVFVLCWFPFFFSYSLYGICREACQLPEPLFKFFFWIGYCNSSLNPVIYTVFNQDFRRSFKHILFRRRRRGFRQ
Sequence (P19328 whole entry): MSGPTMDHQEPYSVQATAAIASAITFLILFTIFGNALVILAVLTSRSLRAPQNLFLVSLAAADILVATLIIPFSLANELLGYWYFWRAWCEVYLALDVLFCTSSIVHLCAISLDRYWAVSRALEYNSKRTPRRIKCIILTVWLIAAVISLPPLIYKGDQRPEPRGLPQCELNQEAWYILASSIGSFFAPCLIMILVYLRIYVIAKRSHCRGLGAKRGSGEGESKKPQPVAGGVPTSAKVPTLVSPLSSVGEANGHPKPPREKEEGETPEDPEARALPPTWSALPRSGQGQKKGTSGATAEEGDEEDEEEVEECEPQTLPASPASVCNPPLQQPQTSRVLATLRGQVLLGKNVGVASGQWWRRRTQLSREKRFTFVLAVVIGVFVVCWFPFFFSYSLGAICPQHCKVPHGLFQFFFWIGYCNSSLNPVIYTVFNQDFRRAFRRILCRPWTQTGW
Sequence (P22909 whole entry): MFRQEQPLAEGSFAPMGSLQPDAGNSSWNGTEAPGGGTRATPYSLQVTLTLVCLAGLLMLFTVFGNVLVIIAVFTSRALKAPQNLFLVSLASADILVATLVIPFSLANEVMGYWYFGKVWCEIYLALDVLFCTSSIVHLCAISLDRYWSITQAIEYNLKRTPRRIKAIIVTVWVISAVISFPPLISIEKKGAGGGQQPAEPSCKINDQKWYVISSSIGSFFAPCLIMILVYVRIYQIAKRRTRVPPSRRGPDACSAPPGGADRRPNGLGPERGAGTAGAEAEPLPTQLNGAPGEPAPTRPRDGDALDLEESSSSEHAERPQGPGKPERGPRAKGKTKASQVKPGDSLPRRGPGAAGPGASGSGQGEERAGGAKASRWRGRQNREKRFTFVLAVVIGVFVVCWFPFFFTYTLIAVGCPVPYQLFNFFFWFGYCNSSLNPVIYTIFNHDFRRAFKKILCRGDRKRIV
assay protocol: Inhibition of Sprague-Dawley rat alpha-2 adrenergic receptor
readout: Ki (µM)
Note: unit µM is implicit; provide only the numeric part.

Below, 10 compounds whose answers are already recorded.
**Query** I have this compound here, `Br.NCC[C@H]1CNC(Nc2cccc(Cl)c2)=N1` , and I need its recorded Ki.
**Result** 7.018

**Query** Please do the same for `Br.NCC[C@H]1CNC(Nc2c(Cl)cccc2Cl)=N1` as well.
**Result** 1.899

**Query** Please do the same for `Cl.Cl.NCC[C@H]1CNC(NC(C2CC2)C2CC2)=N1` as well.
**Result** 5.727

**Query** Please do the same for `Br.NCC[C@@H]1CNC(Cc2cccc3ccccc23)=N1` as well.
**Result** 83.77

**Query** Please do the same for `Br.NCC[C@H]1CNC(Cc2cccc3ccccc23)=N1` as well.
**Result** 0.964

**Query** Please do the same for `Br.NCC[C@@H]1CNC(Nc2cccc(C(F)(F)F)c2)=N1` as well.
**Result** 26.69

**Query** Please do the same for `Br.NCC[C@H]1CNC(c2ccccc2)=N1` as well.
**Result** 43.07

**Query** Please do the same for `Br.NCC[C@H]1CNC(Nc2ccc(Br)cc2)=N1` as well.
**Result** 25.8

**Query** Please do the same for `Br.NCC[C@H]1CNC(Cc2ccccc2)=N1` as well.
**Result** 23.32

**Query** Please do the same for `Br.NCC[C@H]1CNC(c2ccccc2F)=N1` as well.
**Result** 178.6

More entries:
**Query** I have this compound here, `Br.NCC[C@H]1CNC(Nc2c(F)cccc2F)=N1` , and I need its recorded Ki.
**Result** 13.06

**Query** Please do the same for `Br.NCC[C@H]1CNC(Nc2ccc(Cl)cc2Cl)=N1` as well.
**Result** 0.854

**Query** Please do the same for `Br.NCC[C@H]1CNC(/C=C/c2ccccc2)=N1` as well.
**Result** 3.896
